Target: Glucose transporter (Leishmania mexicana) (UniProt O61059)
Assay: ST_JUDE_LEISH: Cytotoxicity at 2uM final concentration against transgenic Leishmania Mexicana promastigotes LmGT2 that are glucose transport deficient and complemented with the L. Mexicana glucose transporter 2. Activity is measured by DNA content using SYBR green in vitro
Assay type: functional
Label 1.0 for high-side inhibition (at or above 7%) and 0.0 for low-side inhibition (below it).

Hi, just wondering whether `CC(=O)N(C)c1cccc(C(=O)Nc2ccc(-c3cccc(-c4nc5cc(C(F)(F)F)ccc5[nH]4)c3)cc2)c1` shows inhibition of 7% or higher.
1.0

Hi, just wondering whether Cn1cc(CN2CCCC(COC(c3ccccc3)c3ccccc3)C2)cn1 (centres undefined) shows inhibition of 7% or higher.
0.0

Hi, just wondering whether `NCCNC(=O)c1ccc(-c2cnc3[nH]cc(-c4ccc(C(N)=O)cc4)c3c2)cc1` shows inhibition of 7% or higher.
0.0
